system: NCI-H226 lung; assay: NCI-60 one-dose screen, 48 h; conditions: 10 µM
About 83,000 compounds went through this panel and 20% of them were active in at least one assay; those are over-represented in the sample as a whole. Calls of active or inactive are those of the source. Rule for the calls: active = growth percent below 10; inactive = the rest.
Pick one and only one: Y for active, N for inactive

Assay result, entry CC1=CC2C(C(O)CC3(C)C2CC(C)C32OCOC23COCO3)C2(C)C/C(=C/O)C(=O)C=C12 (stereo unspecified) — outcome?
N

Returns: the outcome recorded for O=C(CI)OCC(COC(=O)CI)OC(=O)CI in this assay.
N

----------
Listed compounds paired with reported growth
test system: BT-549 breast; test: NCI-60 one-dose screen, 48 h (100 = growth as untreated, 0 = no growth, -100 = all killed); conditions: 10 µM
About 83,000 compounds went through this panel and 20% of them were active in at least one assay; those are over-represented in the sample as a whole.
# unit: % | format: bare number

Let me know recorded growth for CN(C)CCOc1ccc(-c2nc3sccn3c2-c2ccnc(S(C)(=O)=O)n2)cc1 , thanks.
118
